// data source = patent US20250145697A1

Below: a set of entries, each annotated with reported pEC50.
- measurement_target: T1, recombinant alipidated human ApoE3 (human, UniProt P02649 19-317)
- T1 construct: mature; full length recombinant protein made in E. coli or bought
- T1 sequence (P02649 19-317): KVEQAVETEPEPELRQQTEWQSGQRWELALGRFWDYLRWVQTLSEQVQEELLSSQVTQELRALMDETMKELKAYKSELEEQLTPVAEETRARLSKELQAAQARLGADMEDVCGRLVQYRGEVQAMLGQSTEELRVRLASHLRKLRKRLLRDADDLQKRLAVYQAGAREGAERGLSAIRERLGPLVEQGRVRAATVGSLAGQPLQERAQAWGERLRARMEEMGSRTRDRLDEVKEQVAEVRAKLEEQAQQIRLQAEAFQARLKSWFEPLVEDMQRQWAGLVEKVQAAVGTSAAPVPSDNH
- protocol_details: direct ELISA on coated recombinant alipidated ApoE (0.5 ug/ml)
- Description: ELISA dose response curves were generated for several anti-ApoE antibodies. Briefly, plates were coated overnight with full length recombinant alipidated ApoE2, ApoE3, or ApoE4 (0.5 μg/ml). The following days, plates were washed, blocked and then incubated with an anti-ApoE antibody. A goat, anti-mouse IgG-HRP antibody was used for secondary detection. Recombinant alipidated ApoE was either expressed solubly in E. coli and then purified, or purchased from a commercial supplier.
# pEC50 = -log10(concentration in molar units)

1. HJ1513 (antibody, V domains shown, murine monoclonal antibody from hybridoma) VH: QIQLQQSGPELVKPGASVKISCKASGYTFTDYYINWVRQRPGQGLEWIGWIYPESFNTYYNEKFKGKATLTVDTSSNTAYMQLSSLTSEDSAVYFCARYYVSSPFAYWGQGTLVTVSA VL: DVLMTQTPLSLPVSLGDQASISCRSSQNIIHSNGNTYLEWFLQKPGQSPKLLIYKVSNRFSGVPDRFSGSGSGTDFTLKISRVEAEDLGVYYCFQGSHVPYTFGGGTKLEIKR
8.90

Consider the additional binder presented here.
Ask: Determine from records and report pEC50 for HJ155 (antibody, V domains shown, murine monoclonal antibody from hybridoma; also called HJ155B (biotinylated)) VH: RVQLQQSGPGLVKPGASVKISCKASGYTFTDYYINWVRQRPGQGLEWIGWIFPGSGITYYNEKFKGKATLTVDRSSSTAYMLLSSLTSEDSAVYFCARYAYGSPFAYWGQGTLVTVSA VL: DVLMTQTPLSLPVSLGDQASISCRSSQSIVHSNGNTYLEWYLQKPGQSPKLLIYKVSNRFSGVPDRFSGSGSGTDFTLKISRVEAEDLGVYYCFQGSHVPYTFGGGTKLEIKR
Reply: 9.11
